Known growth of a selection of compounds
Test system: IGROV1 ovarian
Assay: NCI-60 one-dose screen, 48 h (100 = growth as untreated, 0 = no growth, -100 = all killed)
Settings: 10 µM unless noted
This is part of a sample that, as a whole, favours compounds with a hit. Of some 83,000 tested, about 20% had one in any assay.
Your answer should be a plain number; it is taken to be in %.

Before answering, review these 3 worked examples.
// returns reported growth for input O=c1c2cc(F)cc(Cl)c2sc2c(NCCCNCCO)nc3ccccc3c12 79.4

Please do the same for CC1(C)C2CC1C1(/C=N\Nc3ccccc3)C(C2)C(C#N)(C#N)C1(C#N)C#N (stereo not given) as well. 64.8

Queued: O=c1cc(SCc2ccccc2)nc[nH]1 111

Next:
Which value of growth has been reported for CN(C)c1ccc2nc3ccc(=[N+](C)C)c([N+](=O)[O-])c-3sc2c1 in the records? 20

Same again, this time with OC(COc1ccccc1)CN1CCN(c2ccc(Cl)cc2)CC1 (stereo not given) 124

Cool, now CCOC(=O)Nc1ccc(C(=O)/C=C/c2ccccc2)cc1 -22.8
